Test system: MOLT-4
experimentalProtocol: NCI tumour cell line growth inhibition, 48 h
Activity calls are given as the source filed them. Cut-off read from the data, not from the text of the source: active = GI50 up to about 1.1 µM and inactive = higher.
Outcomes: 1 (yes) for active, 0 (no) for inactive

compound="CSc1ncc2c(n1)-c1ccccc1OC2N1CCCC1 (configuration not stated)" assignedclass="0 (no)"
compound=CC1=C2NCN(C)N=C2C(C#N)(C#N)C1(C#N)C#N assignedclass="0 (no)"
compound="C[N+]1(C)CCCC1C(=O)[O-] (configuration not stated)" assignedclass="0 (no)"
compound=CCN(Cc1cc(Cl)cc(C)c1O)Cc1c(O)ccc2ccccc12 assignedclass="0 (no)"
compound=Nc1ccc2c(c1)C(=O)c1ccc(F)cc1-2 assignedclass="0 (no)"
compound=CNC(=O)OCc1nc(SSc2nc(COC(=O)NC)c(COC(=O)NC)n2C)n(C)c1COC(=O)NC assignedclass="0 (no)"
compound=O=C1C(O)=C(CCCCCCCCC2CCCCC2)C(=O)c2ccccc21 assignedclass="0 (no)"
compound=CC(C)CCn1nc(N)c2nc3ccccc3nc21 assignedclass="0 (no)"
compound=O=c1[nH][nH]c(=O)n1/N=C/c1ccccc1 assignedclass="0 (no)"
compound=O=S(=O)(O)/C(=N\c1cccc(Cc2ccccc2)c1)Nc1cccc(Cc2ccccc2)c1 assignedclass="0 (no)"
compound=O=C1c2ccccc2-n2c1nc1cc(Cl)ccc1c2=O assignedclass="0 (no)"
compound=COC(=O)[C@@H]1[C@H]2CC[C@]3(C)[C@@H](OC(C)=O)CC[C@H]3[C@@H]2CC[C@H]1C(C)=O assignedclass="0 (no)"
compound=Cc1nc(Cc2n[nH]c(C)n2)n[nH]1 assignedclass="0 (no)"
compound="O=C1[C@H](c2ccccc2)C2c3ccccc3CCN12 (some centres not stated)" assignedclass="0 (no)"
compound="O=C(NC(CO)CO)c1ccc2cc(C(=O)N3CC(CCl)c4ccc([N+](=O)[O-])cc43)[nH]c2c1 (configuration not stated)" assignedclass="0 (no)"
compound=Cc1c(NC(=S)Nc2ccc([N+](=O)[O-])cc2)c(=O)n(-c2ccccc2)n1C assignedclass="0 (no)"
compound="CC1(C)C2CC(=O)C1(C)C(O)C2Br (configuration not stated)" assignedclass="0 (no)"
compound="CCCCCCC(C)c1ccc2c(c1)C(=O)c1nc3ccncc3c(=O)n1-2 (configuration not stated)" assignedclass="1 (yes)"
compound="COc1cc(COC(=O)N2CCCCC2C(=O)O)c([N+](=O)[O-])cc1OC (configuration not stated)" assignedclass="0 (no)"
compound=NC1=C(N2CCOCC2)C(=O)NC2=N/C(=C\c3ccccc3O)C(=O)N21 assignedclass="0 (no)"
compound=CCN(CC)c1ccc(C(=O)c2ccccc2C(=O)O)c(O)c1 assignedclass="0 (no)"
compound="CC1=C(C(=O)OCCc2ccc([N+](=O)[O-])cc2)C(c2ccccc2C(F)(F)F)C(C(=O)OC(C)C)=C(C)N1 (configuration not stated)" assignedclass="0 (no)"

* * *

System: NCI-H522
experimentalProtocol: NCI tumour cell line growth inhibition, 48 h
Calls of active or inactive are those of the source. No stated cut-off is given here; in the data, active = GI50 up to about 1.1 µM and inactive = higher.
parameterMeasured: GI50

molecule=CCN(CC)CCNc1ccc(/N=N/c2ccc(S(N)(=O)=O)cc2)c2ccccc12 valuereported="14.9 µM (inactive)"
molecule="CC(C)CN1CC(C)C(=O)NC1=O (stereo unspecified)" valuereported="> 100 µM (inactive)"
molecule="COc1ccc(OC)c2c1C1CCC(=O)N1CN2C(C)=O (stereo unspecified)" valuereported="> 100 µM (inactive)"
molecule=C=CCOCn1ccc(=O)[nH]c1=O valuereported="> 100 µM (inactive)"
molecule="COc1cc2c(cc1OC)C(Cc1c3ccccc3cc3ccccc13)N(C)CC2 (stereo unspecified)" valuereported="24.4 µM (inactive)"
molecule=C=C1CN(Cc2ccccc2)[C@@H]2CCCCC[C@H](C#N)[C@H]12 valuereported="65.8 µM (inactive)"

* * *

Tested on: ACHN
experimentalProtocol: NCI tumour cell line growth inhibition, 48 h
The source made the active and inactive calls. No stated cut-off is given here; in the data, active = GI50 up to about 1.1 µM and inactive = higher.
Outcomes: t for active, f for inactive

compound=O=[N+]([O-])c1ccc2c(c1)Sc1ccccc1N2CCCCCl assignedclass=f
compound="COC(=O)C1C(=O)C=CN([C@H](C)c2ccccc2)[C@@H]1Cc1ccc(OC)c(OCc2ccccc2)c1I (stereo not given in full)" assignedclass=f
compound=Cn1cc(NC(=O)c2cc(NC(=O)CCCCCCCCCC(=O)Nc3cc(C(=O)Nc4cc(C(=O)NCCC(=N)N)n(C)c4)n(C)c3)cn2C)cc1C(=O)NCCC(=N)N assignedclass=f
compound=Cc1ccccc1CN1CC=c2ccccc2=N1 assignedclass=f
compound="CC1(C)[C@@H]2CC[C@@]1(C)C1(S[S+]1[O-])C21Cc2ccccc2C1 (stereo not given in full)" assignedclass=f
compound="C[N+](C)(C)C(C1=CCCC1=O)c1ccccc1 (stereo not given)" assignedclass=f
compound=NS(=O)(=O)c1ccc(Nc2c3ccccc3nc3c(C(=O)NCCO)cccc23)cc1 assignedclass=t
compound="CCCCCCC(C)c1ccc2c(c1)C(=O)c1nc3ccncc3c(=O)n1-2 (stereo not given)" assignedclass=f
compound="O=c1[nH]c(=O)n(C2OC(CO)C(O)C2O)cc1Oc1ccccc1 (stereo not given)" assignedclass=f
compound="CCOc1cc(NC(C)=O)ccc1C(=O)NN1C(=O)CSC1c1ccccc1 (stereo not given)" assignedclass=f
compound=CN1CCN(Cn2nc(COc3ccc(Cl)cc3)n(/N=C/c3ccc(-c4ccc(Cl)cc4Cl)o3)c2=S)CC1 assignedclass=f
compound=N#Cc1nc(Cc2ccccc2)oc1N assignedclass=f
compound="C[N+]1(C)CCCC1C(=O)[O-] (stereo not given)" assignedclass=f
compound="c1ccc2c(c1)Sc1ccccc1N2CC1CN2CCC1CC2 (stereo not given) [MEQUITAZINE]" assignedclass=f
compound=CC(=O)Oc1cc2c(cc1OCC(F)(F)F)[C@H]1CC[C@]3(C)[C@@H](OC(C)=O)CC[C@H]3[C@@H]1CC2=O assignedclass=f
compound=Cc1ccc(/C=C/C(=O)c2sc(-c3nc(C)c(C(=O)/C=C/c4ccc(C)cc4)s3)nc2C)cc1 assignedclass=f
compound=COC(=O)[C@]1(NC(=O)c2ccccc2)C[C@H]1C=O assignedclass=f
compound="OC1CCCCCCCCCCC1[S+]1CCCC1.O[B-](F)(F)F (stereo not given)" assignedclass=f
compound=CNC(=O)OCc1nc(SSc2nc(COC(=O)NC)c(COC(=O)NC)n2C)n(C)c1COC(=O)NC assignedclass=f
compound=COc1cc(C(SCc2ccccc2)SCc2ccccc2)ccc1O assignedclass=f

* * *

# key: entry, value: GI50
System: SK-MEL-2
experimentalProtocol: NCI tumour cell line growth inhibition, 48 h
Calls of active or inactive are those of the source. Cut-off read from the data, not from the text of the source: active = GI50 up to about 1.1 µM and inactive = higher.
parameterMeasured: GI50

molecule=CC1=NN(c2ccccc2)C(=O)/C1=C\c1ccc([N+](=O)[O-])cc1 valuereported="21.9 µM (inactive)"
molecule="O=C(c1nc2ccccc2nc1O)C(O)c1ccccc1 (stereo not drawn)" valuereported="> 100 µM (inactive)"
molecule="CC(C)CN1CC(C)C(=O)NC1=O (stereo not drawn)" valuereported="> 100 µM (inactive)"
molecule="CCCCCCCCCCCCCCCCOCC(CC(F)(F)P(=O)(OCC)OCC)OC(C)=O (stereo not drawn)" valuereported="19.6 µM (inactive)"
molecule=N/C(=N\N=C\c1nc2ccccc2o1)c1cnccn1 valuereported="80.7 µM (inactive)"
molecule=N#CCOc1cccc(C2(N3CC=CCC3)CCCCC2)c1 valuereported="> 100 µM (inactive)"
molecule=O=S(=O)(O)c1ccc(O)c2ncc(Cl)cc12 valuereported="> 100 µM (inactive)"
molecule="COC(=O)C1C(=O)C=CN([C@H](C)c2ccccc2)[C@@H]1Cc1ccc(OC)c(OCc2ccccc2)c1I (stereo partly drawn)" valuereported="18.9 µM (inactive)"
molecule=CN(C)c1ccc2c(SCC(=O)OCC(=O)[C@@]3(O)CC[C@H]4[C@@H]5CCC6=CC(=O)C=C[C@]6(C)[C@H]5C(=O)C[C@@]43C)c3ccc(N(C)C)cc3nc2c1 valuereported="24.5 µM (inactive)"
molecule=CCCCCCCCCCCCCS(=O)(=O)O valuereported="> 100 µM (inactive)"
molecule=C=C[C@H]1CN2CCc3c([nH]c4c([C@H]5CCCN5C)c(O)ccc34)[C@@H]2C[C@@H]1C[C@H]1c2[nH]c3ccccc3c2CCN1C valuereported="1.9 µM (inactive)"
molecule="COc1ccccc1/C=C1\\CCC(CCN2CCOCC2)C1=O (stereo not drawn)" valuereported="> 100 µM (inactive)"
molecule=CCCCCCCCCCCC[C@@H](O)[C@H]1CC[C@H]([C@H]2CC[C@H]([C@H](O)CC[C@H](O)CCCCCCCC3=C[C@H](C)OC3=O)O2)O1 valuereported="1.52 µM (inactive)"
molecule="COC(=O)CC1C(COC(C)=O)OC(n2cc(C)c(=O)[nH]c2=O)C1OC(C)=O (stereo not drawn)" valuereported="> 100 µM (inactive)"
molecule="CCOC(=O)CSc1nnc(C(Sc2nc(-c3ccccc3)c(-c3ccccc3)[nH]2)C(C)C)n1-c1ccccc1 (stereo not drawn)" valuereported="16.1 µM (inactive)"
molecule=Cc1n[nH]c(=O)n1/N=C/c1ccc([N+](=O)[O-])cc1 valuereported="> 100 µM (inactive)"
molecule=Brc1c(C#CCC(c2ccccc2)(c2ccccc2)c2ccccc2)ccc(C#CCC(c2ccccc2)(c2ccccc2)c2ccccc2)c1Br valuereported="> 100 µM (inactive)"
molecule=O=C1C(O)=C(CCCCCCCCC2CCCCC2)C(=O)c2ccccc21 valuereported="11.8 µM (inactive)"
